Molecular target: TEAD2 YAP50-100 (Homo sapiens, UniProt Q15562)
Sequence (Q15562 217-447): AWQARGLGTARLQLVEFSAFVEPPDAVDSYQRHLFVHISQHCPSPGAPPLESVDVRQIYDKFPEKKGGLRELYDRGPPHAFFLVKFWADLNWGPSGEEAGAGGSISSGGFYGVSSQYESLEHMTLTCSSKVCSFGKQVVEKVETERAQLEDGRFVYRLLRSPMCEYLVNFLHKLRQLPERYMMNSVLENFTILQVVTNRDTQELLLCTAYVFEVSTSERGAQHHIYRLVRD
Experiment: TEAD2:YAP50-100 protein-protein interaction HTRF (TR-FRET) assay
Details: His-tagged TEAD YAP binding domain (aa 217-447), biotinylated YAP peptide aa 50-100; 30 min pre-incubation, 60 min at room temperature; read-out: TEAD2 YAP50-100 HTRF WuXi EC50
pEC50: −log10 of the molar value.
OBSERVABLE: pEC50

Here's what some known entries look like.
O=C(c1cnn2c(=O)cc(-c3ccc(C4CCCCC4)cc3)[nH]c12)N1CC(CF)C1 [Example 41] :: 8.35
O=C(c1cnn2c(=O)cc(-c3ccc(C4CCCCC4)cc3)[nH]c12)N1CC[C@@H]1CF [Example 43] :: 7.65
CCOC(=O)c1cnn2c(=O)cc(-c3ccc(C4CCCC4(C)C)cc3)[nH]c12 (single isomer, unassigned) [Example 20] :: 6.73

1. O=C(c1cnn2c(=O)cc(-c3ccc(C4CCCCC4)cc3)[nH]c12)N1CCC(F)(F)C1 [Example 42]
2. CCNC(=O)c1cnn2c(=O)cc(-c3ccc(C(F)(F)F)cc3)[nH]c12 [Example 24]
3. CCOC(=O)c1cnn2c(=O)cc(-c3ccc(Oc4ccccc4)cc3)[nH]c12 [Example 15]
4. N#C[C@@H]1CCN(C(=O)c2cnn3c(=O)cc(-c4ccc(C5CCCCC5)cc4)[nH]c23)C1 [Example 37]
Qu. Task field, ranking: reported pEC50, descending order. Answer with the labels in sequence, matching the requested order.
Ans. 4, 1, 2, 3
(4: 8.06, 1: 7.84, 2: 7.10, 3: 6.08)

* * *

Molecular target: TEAD3 YAP50-100 (Homo sapiens)
Sequence (Q99594 216-435 limits assumed): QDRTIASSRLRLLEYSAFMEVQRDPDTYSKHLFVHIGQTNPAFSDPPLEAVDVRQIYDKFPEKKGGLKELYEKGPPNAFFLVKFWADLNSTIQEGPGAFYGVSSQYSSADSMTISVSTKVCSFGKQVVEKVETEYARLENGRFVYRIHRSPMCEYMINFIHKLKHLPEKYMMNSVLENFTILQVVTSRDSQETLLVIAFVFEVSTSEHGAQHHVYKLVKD
Experiment: TEAD3:YAP50-100 protein-protein interaction HTRF (TR-FRET) assay
Details: His-tagged TEAD YAP binding domain (aa 217-447), biotinylated YAP peptide aa 50-100; 30 min pre-incubation, 60 min at room temperature; read-out: TEAD3 YAP50-100 HTRF WuXi EC50
OBSERVABLE: EC50 (µM)

CCOC(=O)c1c(C)nn2c(=O)cc(-c3ccc(Oc4ccccc4)cc3)[nH]c12 :: 0.393
O=C(c1cnn2c(=O)cc(-c3ccc(C4CCCCC4)cc3)[nH]c12)N1CCC(F)(F)C1 :: 0.0395
O=C(c1cnn2c(=O)cc(-c3ccc(C4CCCCC4)cc3)[nH]c12)N1CC(C(F)(F)F)C1 :: 0.405
CN(C)C(=O)c1cnn2c(=O)cc(-c3ccc(C4CCCC4)cc3)[nH]c12 :: 0.016

P. N#C[C@@H]1CCN(C(=O)c2cnn3c(=O)cc(-c4ccc(C5CCCCC5)cc4)[nH]c23)C1
Q. CC1(O)CN(C(=O)c2cnn3c(=O)cc(-c4ccc(C5CCCCC5)cc4)[nH]c23)C1
R. CC1CN(C(=O)c2cnn3c(=O)cc(-c4ccc(C5CCCCC5)cc4)[nH]c23)C1
Qu. Order the records by EC50, with each subsequent value no larger than the one before. Note for the reader: the ranking is given by listing the labels in the order requested.
Ans. Q, P, R

1. CN(C)C(=O)c1cnn2c(=O)cc(-c3ccc(Oc4ccccc4)cc3)[nH]c12
2. CCOC(=O)c1cnn2c(=O)cc(-c3ccc(C4CCCC4(C)C)cc3)[nH]c12 (single isomer, unassigned) [Example 20]
3. CCOC(=O)c1cnn2c(=O)cc(-c3ccc(C4CCCC4)cc3)[nH]c12
4. CCOC(=O)c1cnn2c(=O)cc(-c3ccc(C4(c5ccccc5)CC4)cc3)[nH]c12
Qu. Sort by EC50, descending. I would appreciate it if you listed the labels in the requested order.
Ans. 1, 4, 2, 3

I. O=C(c1cnn2c(=O)cc(-c3ccc(C4CCCCC4)cc3)[nH]c12)N1CC(O)C1
II. CCN(C)C(=O)c1cnn2c(=O)cc(-c3ccc(C4CCCCC4)cc3)[nH]c12
III. CCOC(=O)c1cnn2c(=O)cc(-c3ccc(Oc4ccccc4)cc3)[nH]c12
Qu. Arrange these 3 molecules in increasing order of EC50. Give the labels in the order specified.
Ans. II, I, III
(II: 0.018 µM, I: 0.072 µM, III: 0.532 µM)
